Molecular target: T1, TSHR260-alkaline phosphatase (TSHR260-AP) (human, UniProt P05187 23-511)
T1 construct: Fusion of human TSHR amino acids 22-260 (construct codes 1-260, 1-21 being the leader) with secreted alkaline phosphatase, expressed in insect cells; In the ELISA the antibody bridges full length detergent-solubilised TSHR coated on the wells and TSHR260-AP in the liquid phase
Assay: TSHR260-AP bridge ELISA, full length TSHR on wells; 250 µg/mL, diluted in assay buffer
readout-label: Mean absorbance at 405 nm

- binder: "K1-70 Fab (Fab, V domains shown, residue limits as in claims 56 and 57) VH: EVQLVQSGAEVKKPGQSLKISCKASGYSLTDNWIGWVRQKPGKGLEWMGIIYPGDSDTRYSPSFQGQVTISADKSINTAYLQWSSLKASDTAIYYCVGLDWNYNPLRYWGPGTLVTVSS VL: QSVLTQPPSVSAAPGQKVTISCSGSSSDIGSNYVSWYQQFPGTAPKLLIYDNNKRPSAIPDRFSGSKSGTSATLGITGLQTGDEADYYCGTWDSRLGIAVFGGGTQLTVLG"
  Mean absorbance at 405 nm: "0.056 absorbance at 405 nm"
- binder: "K1-18 Fab (Fab, V domains shown, residue limits as in claim 65) VH: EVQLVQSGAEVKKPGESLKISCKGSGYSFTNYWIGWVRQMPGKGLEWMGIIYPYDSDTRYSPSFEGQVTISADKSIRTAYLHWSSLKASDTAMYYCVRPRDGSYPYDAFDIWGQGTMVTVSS VL: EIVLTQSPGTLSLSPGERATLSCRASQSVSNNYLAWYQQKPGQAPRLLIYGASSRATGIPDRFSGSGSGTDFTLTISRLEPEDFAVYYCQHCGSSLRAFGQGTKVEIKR"
  Mean absorbance at 405 nm: "0.049 absorbance at 405 nm"

Next item in the queue.
Briefly, Mean absorbance at 405 nm measured for K1-18 IgG (antibody, V domains shown, Human IgG1 kappa purified from hetero-hybridoma supernatant) VH: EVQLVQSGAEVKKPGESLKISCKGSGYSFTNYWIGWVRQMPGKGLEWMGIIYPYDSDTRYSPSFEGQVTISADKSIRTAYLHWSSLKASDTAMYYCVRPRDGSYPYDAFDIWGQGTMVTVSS VL: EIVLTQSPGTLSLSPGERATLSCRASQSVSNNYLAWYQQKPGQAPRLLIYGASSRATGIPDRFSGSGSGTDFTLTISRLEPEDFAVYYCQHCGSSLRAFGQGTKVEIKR : 1.2 absorbance at 405 nm

The measurements presented in this section are drawn from patent US20110300138A1.
